Origin of values: ChEMBL document CHEMBL1961873

Assayed System: Ribosomal protein S6 kinase alpha-3 (Homo sapiens)
Condition Details: at 1 µM
Description: GSK_PKIS: RSK2 mean inhibition at 1 uM [Nanosyn]
inhibition values, listed per item
Attribute Measured: inhibition

1. Cc1ccc(C(=O)NC2CCC2)cc1-c1ccc(C(=O)NCC2CC2)cc1 ... 1.47%
2. O=C1Nc2ccc(I)cc2C1=Cc1cc(Br)c(O)c(Br)c1 ... 1.7%
3. CN(C)c1ccc2c(c1)/C(=C/Nc1ccc(S(N)(=O)=O)cc1)C(=O)N2 ... 14.7%
4. Fc1ccc(-c2nc3n(c2-c2ccncc2)CCS3)cc1 ... 1.71%
5. COc1cc(N2CCN(C(C)C)CC2)ccc1Nc1nc(Nc2ccc(F)cc2C(=O)NC[C@@H](O)CO)c2cc[nH]c2n1 ... 7.3%
6. COc1cc(Nc2ncc(-c3ccccc3)o2)cc(OC)c1OC ... 2.83%
7. Fc1ccc(-c2ncn(C3CCNCC3)c2-c2ccnc(Oc3ccc(Oc4ccccc4)cc3)n2)cc1 ... 2.37%
8. NCc1ccc(-n2c(-c3nonc3N)nc3cnccc32)cc1 ... 81.4%
9. COc1cc(C)c(N(C)C(=O)CN(C)C)cc1Nc1nc(Nc2cccc(F)c2C(N)=O)c2cc[nH]c2n1 ... 1.43%
10. COC(=O)Nc1nc2ccc(Sc3ccc(NC(=O)Nc4cc(C(F)(F)F)ccc4F)cc3)cc2[nH]1 ... -1.87%

###

Assayed System: Tyrosine-protein kinase Blk (Homo sapiens);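 further: reported value is the mean percent inhibition of BLK kinase activity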
Condition Details: at 0.1 µM
Attribute Measured: inhibition (%)

1) CCc1cccc(CC)c1/C=C/c1cncc(C(=O)NC)c1 ... 2.14
2) COc1ccc2cc(-c3c(-c4ccncc4)nc(-c4ccc(S(C)(=O)=O)cc4C)n3C)ccc2c1 ... 3.03
3) NCc1ccc(-n2c(-c3nonc3N)nc3cnccc32)cc1 ... 3.21
4) NS(=O)(=O)c1ccc(Nc2cc(-c3ccc(O)c(F)c3)n[nH]2)cc1 ... -1.01
5) Fc1ccc(-c2ncn(C3CCNCC3)c2-c2ccnc(Oc3ccc(Oc4ccccc4)cc3)n2)cc1 ... 3.8
6) COc1ccc(-c2ccc3c(NC(=O)C4CC4)n[nH]c3n2)cc1 ... 1.52
7) CCN(CC)Cc1ccc(Nc2nccc(-c3cnn4ncccc34)n2)cc1 ... -0.3
8) CS(=O)(=O)CCNCc1cc(-c2cc3c(Nc4ccc(OCc5cccc(F)c5)c(Cl)c4)ncnc3s2)cs1 ... 2.61
9) N#Cc1ccc(Oc2nccc(-c3c(-c4ccc(F)cc4)ncn3C3CCNCC3)n2)cc1 ... 2.21
10) COC(=O)Nc1nc2ccc(Sc3ccc(NC(=O)Nc4cc(C(F)(F)F)ccc4F)cc3)cc2[nH]1 ... 0.49

###

Assayed System: Ephrin type-B receptor 4 (Homo sapiens) (UniProt P54760);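 further: each value is a mean percent inhibition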
Sequence (P54760 whole entry): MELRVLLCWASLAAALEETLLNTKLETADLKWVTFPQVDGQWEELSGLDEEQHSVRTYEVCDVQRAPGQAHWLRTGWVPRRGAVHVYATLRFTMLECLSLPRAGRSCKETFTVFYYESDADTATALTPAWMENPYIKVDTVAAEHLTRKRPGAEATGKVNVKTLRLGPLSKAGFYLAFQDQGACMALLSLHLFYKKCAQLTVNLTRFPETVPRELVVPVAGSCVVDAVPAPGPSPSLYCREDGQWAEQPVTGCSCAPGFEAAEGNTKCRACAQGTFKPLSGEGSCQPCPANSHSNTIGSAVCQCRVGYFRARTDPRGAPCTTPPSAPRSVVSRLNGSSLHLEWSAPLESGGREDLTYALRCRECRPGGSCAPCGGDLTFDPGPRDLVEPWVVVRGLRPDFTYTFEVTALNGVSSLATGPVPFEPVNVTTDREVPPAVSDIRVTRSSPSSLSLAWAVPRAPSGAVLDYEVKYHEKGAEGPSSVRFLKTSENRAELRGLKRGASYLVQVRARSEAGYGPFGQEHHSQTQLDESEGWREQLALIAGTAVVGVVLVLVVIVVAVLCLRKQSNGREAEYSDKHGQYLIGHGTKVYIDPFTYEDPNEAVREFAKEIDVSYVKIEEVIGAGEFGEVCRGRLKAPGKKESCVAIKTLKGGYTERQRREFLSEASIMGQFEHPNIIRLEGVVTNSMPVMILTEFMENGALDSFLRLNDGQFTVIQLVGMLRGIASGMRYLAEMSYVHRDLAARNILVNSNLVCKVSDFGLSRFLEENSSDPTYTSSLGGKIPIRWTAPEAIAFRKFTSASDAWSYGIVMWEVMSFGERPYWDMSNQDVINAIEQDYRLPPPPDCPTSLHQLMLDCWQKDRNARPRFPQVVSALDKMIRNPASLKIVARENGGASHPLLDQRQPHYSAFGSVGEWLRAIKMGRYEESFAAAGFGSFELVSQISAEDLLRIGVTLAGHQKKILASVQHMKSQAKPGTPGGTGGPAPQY
Condition Details: at 0.1 µM
inhibition values, listed per item
Attribute Measured: inhibition

1. Cc1nnc(-c2ccc(C)c(-c3ccc(C(=O)NCc4ccc(Cl)cc4)cc3)c2)o1 ... -0.5%
2. Fc1ccc(-c2ncn(C3CCNCC3)c2-c2ccnc(Oc3ccc4c(c3)OCO4)n2)cc1 ... 1.53%
3. FC(F)(F)c1cccc(Nc2nccc(-c3cnn4nc(-c5ccccc5)ccc34)n2)c1 ... -0.91%
4. Clc1ccc(CNc2nccc(-c3cnn4ncccc34)n2)cc1 ... 0.83%
5. O=C1Nc2ccccc2/C1=C/Nc1ccc(-n2cncn2)cc1 ... 2.19%
6. NC(=O)c1cc(-c2ccncc2)cc(-c2ccccc2)c1N ... 7.68%
